Listed here are compounds together with their documented EC50.
Tested on: KB
Assay: Cytotoxicity against human KB cells
Assay type: functional
Details: read-out: ED50 (the source's name)
State the answer as a number, implicitly in µg/mL.

Here is how some compounds turned out for EC50.
> print(dat)
                                   compound  endpoint.unit   val
1  CCC(C)c1cc(=O)oc2c(C(=O)CC(C)CO)c(O)c(CC=C(C)C)c(O)c12 (centres undefined)          µg/mL  15.8
2          Cc1c2ccncc2c(C)c2c1[nH]c1ccccc12          µg/mL  0.04

Ask | Which EC50 reading was recorded for the compound CC(C)=CCc1c(O)c(C(=O)CC(C)CO)c2oc(=O)cc(-c3ccccc3)c2c1O (centres undefined) ?
Reply | 17.7
